Values from ChEMBL document CHEMBL1961873

Target: Cytoplasmic tyrosine-protein kinase BMX (Homo sapiens);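 further: reported value is the mean percent inhibition of BMX, from the GSK PKIS kinase inhibitor screen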
Sequence (whole entry): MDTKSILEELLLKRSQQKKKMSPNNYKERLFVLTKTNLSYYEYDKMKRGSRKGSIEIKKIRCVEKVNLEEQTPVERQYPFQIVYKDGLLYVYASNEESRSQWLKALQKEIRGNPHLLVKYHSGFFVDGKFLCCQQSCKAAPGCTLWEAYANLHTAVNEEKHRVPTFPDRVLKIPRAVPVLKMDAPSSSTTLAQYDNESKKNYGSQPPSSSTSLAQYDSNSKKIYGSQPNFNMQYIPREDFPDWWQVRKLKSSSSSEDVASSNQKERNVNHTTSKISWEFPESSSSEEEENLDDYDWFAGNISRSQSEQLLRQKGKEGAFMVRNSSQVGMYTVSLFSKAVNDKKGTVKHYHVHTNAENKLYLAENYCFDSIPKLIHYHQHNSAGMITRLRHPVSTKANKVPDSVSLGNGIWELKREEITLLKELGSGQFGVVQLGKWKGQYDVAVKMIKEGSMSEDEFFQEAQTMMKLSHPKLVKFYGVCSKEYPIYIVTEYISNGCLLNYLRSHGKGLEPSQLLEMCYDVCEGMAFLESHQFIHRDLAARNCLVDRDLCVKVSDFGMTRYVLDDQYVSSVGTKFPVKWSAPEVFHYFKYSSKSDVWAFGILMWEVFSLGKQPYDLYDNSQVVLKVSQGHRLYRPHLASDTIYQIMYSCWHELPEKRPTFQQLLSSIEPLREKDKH
Settings: at 1 µM
Returns true if the recorded inhibition is greater than or equal to 2%, and false otherwise.

A selection of reference data follows.
[[record]]
compound = "NC(=O)c1ccc(Oc2nccc(-c3c(-c4ccc(F)cc4)ncn3C3CCNCC3)n2)cc1"
classification = "true"

[[record]]
compound = "COc1ccc2cc(-c3c(-c4ccncc4)nc(-c4ccc([S+](C)[O-])cc4C)n3C)ccc2c1 (stereo not given)"
classification = "false"

[[record]]
compound = "O=C(Nc1n[nH]c2cc(-c3ccccc3)ccc12)C1CC1"
classification = "true"

[[record]]
compound = "Cc1ccc(NC(=O)c2ccoc2)cc1-c1ccc(C(=O)NCC2CC2)cc1"
classification = "false"


Next, consider the following compound.
inhibition >= 2% for CCS(=O)(=O)c1ccc(OC)c(Nc2ncc(-c3cccc(-c4ccccc4F)c3)o2)c1 ?
true

----------
target: Vascular endothelial growth factor receptor 1 (Homo sapiens); conditions: at 1 µM
Description: GSK_PKIS: FLT1 mean inhibition at 1 uM [Nanosyn]
Assignment: determine reported inhibition for the given compounds.
Hi, when you answer, please include the unit after the number. Thanks!

[[record]]
structure_smiles = "FC(F)(F)c1cccc(Nc2nccc(-c3cnn4nc(-c5ccccc5)ccc34)n2)c1"
endpoint_name = "inhibition"
result = "1.17%"

[[record]]
structure_smiles = "COC(=O)Nc1nc2ccc(Sc3ccc(NC(=O)Nc4cc(C(F)(F)F)ccc4F)cc3)cc2[nH]1"
endpoint_name = "inhibition"
result = "37.7%"

[[record]]
structure_smiles = "CCC(=O)Nc1ccc(C)c(-c2ccc(C(=O)NCC3CC3)cc2)c1"
endpoint_name = "inhibition"
result = "4.22%"

[[record]]
structure_smiles = "CN(c1ccc(NC(=O)Nc2c(Cl)cccc2Cl)cc1)c1ccnc(Nc2cccc(CS(C)(=O)=O)c2)n1"
endpoint_name = "inhibition"
result = "51%"

[[record]]
structure_smiles = "CCc1cccc(CC)c1/C=C/c1cncc(C(=O)NC)c1"
endpoint_name = "inhibition"
result = "2.13%"


Give measured inhibition for every item shown.
1. C[C@@H](Oc1cc(-n2cnc3ccc(OC4CCN(C)CC4)cc32)sc1C(N)=O)c1ccccc1Cl
2. CN(C)c1ccc2c(c1)/C(=C/Nc1ccc(S(N)(=O)=O)cc1)C(=O)N2
3. C/C(Nc1ccc(S(N)(=O)=O)cc1)=C1/C(=O)Nc2ccccc21
4. Fc1ccc(-c2ncn(C3CCNCC3)c2-c2ccnc(Oc3ccc4c(c3)OCO4)n2)cc1
5. COc1cc(Nc2ncc3c(C)nc(-c4cccc(C(F)(F)F)c4)n3n2)cc(OC)c1OC

1. 3.12%
2. 12.6%
3. 23.6%
4. 2.35%
5. 5.18%

----------
test system: Tyrosine-protein kinase ABL1 (Homo sapiens), P00519 [E255K]; details: at 0.1 µM
Sequence (P00519 whole entry E255K): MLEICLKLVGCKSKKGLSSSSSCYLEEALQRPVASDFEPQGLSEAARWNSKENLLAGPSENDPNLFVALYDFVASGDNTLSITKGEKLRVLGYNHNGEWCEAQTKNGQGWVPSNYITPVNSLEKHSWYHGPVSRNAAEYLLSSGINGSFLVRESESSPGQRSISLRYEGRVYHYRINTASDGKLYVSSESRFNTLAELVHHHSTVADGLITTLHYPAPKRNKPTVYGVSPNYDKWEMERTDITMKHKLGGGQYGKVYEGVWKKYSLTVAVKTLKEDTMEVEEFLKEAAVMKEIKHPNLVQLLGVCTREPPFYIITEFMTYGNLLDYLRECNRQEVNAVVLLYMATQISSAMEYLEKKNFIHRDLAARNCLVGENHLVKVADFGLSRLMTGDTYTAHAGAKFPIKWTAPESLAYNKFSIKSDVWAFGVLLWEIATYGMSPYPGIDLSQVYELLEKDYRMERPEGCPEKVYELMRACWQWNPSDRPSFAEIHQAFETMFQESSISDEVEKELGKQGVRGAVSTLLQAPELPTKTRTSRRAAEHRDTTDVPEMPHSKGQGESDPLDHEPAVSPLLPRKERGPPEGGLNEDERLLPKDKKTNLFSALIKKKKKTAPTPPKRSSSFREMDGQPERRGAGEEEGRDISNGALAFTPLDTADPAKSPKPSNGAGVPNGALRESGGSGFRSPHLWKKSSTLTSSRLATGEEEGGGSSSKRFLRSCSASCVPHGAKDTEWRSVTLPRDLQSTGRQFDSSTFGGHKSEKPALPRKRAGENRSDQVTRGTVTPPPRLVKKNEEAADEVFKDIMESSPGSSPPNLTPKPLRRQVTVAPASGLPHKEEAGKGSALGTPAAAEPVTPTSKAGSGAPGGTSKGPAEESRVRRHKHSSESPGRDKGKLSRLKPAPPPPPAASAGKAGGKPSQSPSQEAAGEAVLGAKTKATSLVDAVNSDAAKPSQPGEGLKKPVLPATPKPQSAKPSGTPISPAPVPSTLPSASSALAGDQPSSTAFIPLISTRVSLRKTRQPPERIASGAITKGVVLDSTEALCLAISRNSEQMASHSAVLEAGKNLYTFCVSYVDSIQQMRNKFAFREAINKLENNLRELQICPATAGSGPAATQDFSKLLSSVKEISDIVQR
endpoint_name: inhibition (%)
One number for each entry, in %.

Can you give me inhibition for all of these, one by one?
1. Fc1ccc(-c2c(-c3ccncc3)nc3n2CCS3)cc1
2. CNC(=O)c1cncc(/C=C/c2c(C)cccc2C)c1
3. COc1cc(C)c(N(C)C(=O)CN(C)C)cc1Nc1nc(Nc2cccc(F)c2C(N)=O)c2cc[nH]c2n1
4. NCc1ccc(-n2c(-c3nonc3N)nc3cnccc32)cc1

1: 1.44; 2: 8.21; 3: -1.15; 4: 3.58

----------
I'd appreciate it if you could supply inhibition values for the items below.
target: Serine/threonine-protein kinase Chk2 (Homo sapiens) (UniProt O96017); conditions: at 1 µM;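 further: reported value is the mean inhibition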
Sequence (O96017 whole entry): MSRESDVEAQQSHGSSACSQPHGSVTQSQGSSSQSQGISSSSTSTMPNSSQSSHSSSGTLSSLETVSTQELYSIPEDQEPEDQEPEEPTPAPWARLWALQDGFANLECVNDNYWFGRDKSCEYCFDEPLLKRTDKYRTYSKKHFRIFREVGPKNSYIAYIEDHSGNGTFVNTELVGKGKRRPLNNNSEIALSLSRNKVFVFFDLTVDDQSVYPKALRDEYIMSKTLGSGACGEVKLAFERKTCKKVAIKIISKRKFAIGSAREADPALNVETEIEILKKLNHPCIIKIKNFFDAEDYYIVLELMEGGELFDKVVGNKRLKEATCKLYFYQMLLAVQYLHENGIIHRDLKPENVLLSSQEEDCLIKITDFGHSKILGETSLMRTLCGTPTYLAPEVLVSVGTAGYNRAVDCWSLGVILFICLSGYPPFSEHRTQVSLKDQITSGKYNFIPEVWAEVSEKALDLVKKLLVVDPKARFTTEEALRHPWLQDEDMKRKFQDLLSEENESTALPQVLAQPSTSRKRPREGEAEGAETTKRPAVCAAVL
Numbers only, in %.

[[record]]
molecule = "C/C(Nc1ccc(S(N)(=O)=O)cc1)=C1/C(=O)Nc2ccccc21"
endpoint_name = "inhibition"
unit_spec = "%"
numeric_result = 14.5

[[record]]
molecule = "CCC(=O)Nc1ccc(C)c(-c2ccc(C(=O)NCC3CC3)cc2)c1"
endpoint_name = "inhibition"
unit_spec = "%"
numeric_result = 5.57

[[record]]
molecule = "FC(F)(F)c1cccc(Nc2nccc(-c3cnn4nc(-c5ccccc5)ccc34)n2)c1"
endpoint_name = "inhibition"
unit_spec = "%"
numeric_result = 1.27

[[record]]
molecule = "Fc1ccc(-c2ncn(C3CCNCC3)c2-c2ccnc(Oc3ccc4c(c3)OCO4)n2)cc1"
endpoint_name = "inhibition"
unit_spec = "%"
numeric_result = -3.43


Quick request: inhibition for each listed item, please.
1. Fc1ccc(-c2c(-c3ccncc3)nc3n2CCS3)cc1
2. Fc1ccc(-c2ncn(CCCN3CCOCC3)c2-c2ccncc2)cc1
3. CN(C)CCCNc1nccc(-c2c(-c3ccc(F)cc3)nn3cc(C(F)(F)F)ccc23)n1

[0.52, -1.12, 0.61]

Would you mind listing inhibition for each of the following molecules?
1. c1ccc(-c2n[nH]cc2-c2ccnc(-c3ccc(OCCN4CCOCC4)cc3)c2)nc1
2. CN(c1ccc(NC(=O)Nc2c(Cl)cccc2Cl)cc1)c1ccnc(Nc2cccc(CS(C)(=O)=O)c2)n1
3. COc1cc(Nc2ncc(-c3ccccc3)o2)cc(OC)c1OC
4. O=C(Nc1n[nH]c2cc(-c3ccccc3)ccc12)C1CC1
5. NS(=O)(=O)c1ccc(Nc2cc(-c3ccc(O)c(F)c3)n[nH]2)cc1
6. C#Cc1cccc(Nc2ncnc3ccc(OCCCCNCCS(C)(=O)=O)cc23)c1

1. 2.24
2. 16.8
3. 1.28
4. 3.79
5. 3.93
6. 7.73

Would you be so kind as to report inhibition for each listed record?
1. CN1CCN(CCCNc2nc3ccc(Oc4ccc(NC(=O)Nc5cc(C(F)(F)F)ccc5F)cc4)cc3[nH]2)CC1
2. Nc1nccc(-c2c(-c3ccc(F)cc3)ncn2C2CCC(O)CC2)n1 (centres undefined)
3. Cc1ccc(NC(=O)c2ccoc2)cc1-c1ccc(C(=O)NCC2CC2)cc1

[0.77, -1.72, 1.43]

Can you give me inhibition for all of these, one by one?
1. CS(=O)(=O)CCNCc1ccc(-c2ccc3ncnc(Nc4ccc(OCc5ccccc5)c(Br)c4)c3c2)o1
2. Clc1ccc(CNc2nccc(-c3cnn4ncccc34)n2)cc1
3. N#Cc1ccc(Oc2nccc(-c3c(-c4ccc(F)cc4)ncn3C3CCNCC3)n2)cc1
4. Fc1ccc(-c2ncn(C3CCNCC3)c2-c2ccnc(Oc3ccc(Oc4ccccc4)cc3)n2)cc1
5. NC(=O)c1cc(-c2ccncc2)cc(-c2ccccc2)c1N
6. COc1cc(Nc2ncc3c(C)nc(-c4cccc(C(F)(F)F)c4)n3n2)cc(OC)c1OC
7. CCS(=O)(=O)c1ccc(OC)c(Nc2ncc(-c3ccccc3Cl)o2)c1
8. Fc1ccc(-c2nc3n(c2-c2ccncc2)CCS3)cc1

1. 2.92
2. 6.1
3. 4.2
4. 13.4
5. -0.01
6. 9.62
7. -0.76
8. 3.47

----------
target: 5'-AMP-activated protein kinase catalytic subunit alpha-2 (Homo sapiens); conditions: at 0.1 µM;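 further: mean inhibition measured on the AMPK complex of alpha2, beta1 and gamma1 subunits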
Description: GSK_PKIS: AMPKA2 (A2B1G1) mean inhibition at 0.1 uM [Nanosyn]
For each of the compounds below, state its inhibition.
Numbers only, in %.

Below are worked cases with known answers.
[[record]]
structure_smiles = "Fc1ccc(-c2c(-c3ccncc3)nc3n2CCS3)cc1"
subject_of_test = "5'-AMP-activated protein kinase catalytic subunit alpha-2 (Homo sapiens)"
numeric_result = 3.93

[[record]]
structure_smiles = "Cc1ccc(C(=O)NC(C)C)cc1-c1ccc(C(=O)NCC2CC2)cc1"
subject_of_test = "5'-AMP-activated protein kinase catalytic subunit alpha-2 (Homo sapiens)"
numeric_result = -0.98

[[record]]
structure_smiles = "COc1ccc2cc(-c3c(-c4ccncc4)nc(-c4ccc(S(C)(=O)=O)cc4C)n3C)ccc2c1"
subject_of_test = "5'-AMP-activated protein kinase catalytic subunit alpha-2 (Homo sapiens)"
numeric_result = 4.21

[[record]]
structure_smiles = "CN1CCN(CCCNc2nc3ccc(Oc4ccc(NC(=O)Nc5cc(C(F)(F)F)ccc5F)cc4)cc3[nH]2)CC1"
subject_of_test = "5'-AMP-activated protein kinase catalytic subunit alpha-2 (Homo sapiens)"
numeric_result = 2.94

[[record]]
structure_smiles = "NC(=O)c1ccc(Oc2nccc(-c3c(-c4ccc(F)cc4)ncn3C3CCNCC3)n2)cc1"
subject_of_test = "5'-AMP-activated protein kinase catalytic subunit alpha-2 (Homo sapiens)"
numeric_result = 7.31

[[record]]
structure_smiles = "O=C(Nc1n[nH]c2cc(-c3ccccc3)ccc12)C1CC1"
subject_of_test = "5'-AMP-activated protein kinase catalytic subunit alpha-2 (Homo sapiens)"
numeric_result = 4.21

[[record]]
structure_smiles = "N#Cc1ccc(Oc2nccc(-c3c(-c4ccc(F)cc4)ncn3C3CCNCC3)n2)cc1"
subject_of_test = "5'-AMP-activated protein kinase catalytic subunit alpha-2 (Homo sapiens)"
numeric_result = 3.09

[[record]]
structure_smiles = "CCN(CC)Cc1ccc(Nc2nccc(-c3cnn4ncccc34)n2)cc1"
subject_of_test = "5'-AMP-activated protein kinase catalytic subunit alpha-2 (Homo sapiens)"
numeric_result = 7.01


Give one value of inhibition per listed compound.
1. CCC(=O)Nc1ccc(C)c(-c2ccc(C(=O)NCC3CC3)cc2)c1
2. Fc1ccc(-c2nc3n(c2-c2ccncc2)CCS3)cc1
3. CCc1cccc(CC)c1/C=C/c1cncc(C(=O)NC)c1

4.95
4.5
0.22
